# experimental details: MITF-driven TRPM1 luciferase induction in melanoma cells – cell-based, SK-MEL-5, single point, primary screen (AID 588334);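 note: 0% = neutral control wells and 100% = parthenolide positive control wells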
# condition set: SK-MEL-5 TRPM1-promoter luciferase, 24 h; at 12.5 µM; stronger effect = higher value; % of positive control, neutral wells = 0
Screen size: about 300,000 compounds; about 2,300 (0.77%) were called active. Many of the other results were omitted from the sample, so actives are more common in it than they were.
Recorded activation for the following compounds
Kindly answer with a numeric value in %, unit omitted.

Consider the worked cases shown below.
compound: CCN(CC)S(=O)(=O)c1cccc(NC(=O)c2ccc(S(=O)(=O)N3CCCC3)cc2)c1
activation (%): -10.8

compound: O=C(Nc1ccc(Cl)cc1)/C(=C1\CCCN1)[N+](=O)[O-]
activation (%): 88.7

Task: Requested read-out: activation. Entry: COc1ccc(-c2nnc(SCc3cccnc3)o2)cc1
Output: 72

Task: Consider the compound Cc1c(CCC(=O)O)c(=O)oc2cc(OCc3ccc(Br)cc3)ccc12 and give its measured activation.
Output: -2.55

----------
# experimental details: MITF-driven TRPM1 luciferase induction in melanoma cells – cell-based, SK-MEL-5, single point, primary screen (AID 588334);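 note: 0% = neutral control wells and 100% = parthenolide positive control wells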
# condition set: SK-MEL-5 TRPM1-promoter luciferase, 24 h; at 12.5 µM; stronger effect = higher value; % of positive control, neutral wells = 0
Screen size: about 300,000 compounds; about 2,300 (0.77%) were called active. Many of the other results were omitted from the sample, so actives are more common in it than they were.
assay endpoint: activation (%)
Write the answer as a number in %, unit excluded.

Sample answers from the record:
structure: c1csc(-c2nc(-c3ccncc3)no2)c1
numeric readout: 113
--
structure: CC(C)c1ccc(/C=C/C(=O)NCCCN2CCOCC2)cc1
numeric readout: 4.51
--
structure: COc1ccc(N=Nc2ccc(O)c(P(=O)(c3ccccc3)c3ccccc3)c2)cc1
numeric readout: 5.85

Task: Please look up its activation: COc1ccc(C(=O)Nc2cc(S(=O)(=O)N3CCCC3)ccc2Cl)cc1
Output: 5.82

Task: So what's the measured activation for this one? Oc1ccc(-c2nc3ccccc3nc2-c2ccc(O)cc2O)c(O)c1
Output: -29.5

Task: activation for COC(=O)Cc1[nH]n(-c2nc3ccccc3s2)c(=O)c1C(C)=Nc1ccc(OC)cc1 ?
Output: -94.9

----------
# experimental details: MITF-driven TRPM1 luciferase induction in melanoma cells – cell-based, SK-MEL-5, single point, primary screen (AID 588334);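 note: 0% = neutral control wells and 100% = parthenolide positive control wells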
# condition set: SK-MEL-5 TRPM1-promoter luciferase, 24 h; at 12.5 µM; % of positive control, neutral wells = 0
The campaign covered roughly 300,000 compounds. About 2,300 (0.77%) were called active.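 How the source made its calls: active means mean activation of at least 80% with every replicate also reaching 80%; inconclusive means mean reaches 80% but some replicate falls short; inactive means the rest.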 This is one part of a sample in which actives are shown more often than they occur.
Pick one and only one: active, inactive

Example cases with answers are listed next.
molecule: O=C(CSc1nnc(-c2ccco2)n1-c1ccccc1)NCCc1ccccc1
label class: inactive
--
molecule: O=C(Cc1ccc(Cl)cc1)c1ccccc1
label class: active
--
molecule: CCCCN(C(=O)c1cccc(N2C(=O)c3ccccc3C2=O)c1)c1c(N)n(CCCC)c(=O)[nH]c1=O
label class: inactive
--
molecule: C=CCOC(=O)N1CCC2CC1c1cc(-c3ccc(OC)cc3)ccc12 (centres undefined)
label class: inactive
--
molecule: CN(CCc1ccccc1)C(=O)c1cccc(NC(=O)Cc2cccc(NC(=O)C3CCCN(C(=O)C4CCC4)C3)c2)c1 (centres undefined)
label class: inactive

Field: next molecule
Task: Tell me the recorded outcome of this test for c1ccc(CSc2nnc(-c3ccco3)n2Cc2ccccc2)cc1 .
Output: active

----------
# experimental details: MITF-driven TRPM1 luciferase induction in melanoma cells – cell-based, SK-MEL-5, single point, primary screen (AID 588334);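 note: 0% = neutral control wells and 100% = parthenolide positive control wells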
# condition set: SK-MEL-5 TRPM1-promoter luciferase, 24 h; at 12.5 µM; % of positive control, neutral wells = 0
Screen size: about 300,000 compounds; about 2,300 (0.77%) were called active.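 How the source made its calls: active means mean activation of at least 80% with every replicate also reaching 80%; inconclusive means mean reaches 80% but some replicate falls short; inactive means the rest.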 Shown is part of a subset that was picked to be rich in actives.
Could you please pick one outcome from this set? true = active, false = inactive

Check out these entries, answers already filled in.
molecule: O=C(CN1CCN(c2ccccn2)CC1)N1CCc2ccccc21
label class: false

molecule: CN(CCc1ccccc1)C(=O)c1cccc(NC(=O)Cc2cccc(NC(=O)C3CCCN(C(=O)CCc4ccccc4)C3)c2)c1 (stereo not drawn)
label class: false

molecule: COc1ccc(N2CCN(Cc3nnc(-c4ccccc4)o3)CC2)cc1
label class: false

molecule: O=C(Cc1ccc(Cl)cc1)NCc1nc(-c2ccccc2)no1
label class: false

molecule: O=C(Cc1nc2ccccc2[nH]c1=O)c1ccc(Cl)cc1
label class: false

Task: Hello, I am checking results. What call was entered for CCOC(=O)c1ccccc1NC(=O)CSc1nc2c(sc(=S)n2CC)c(=O)[nH]1 ?
Output: false

----------
We begin with a simple list: items and their reported activation.
# experimental details: MITF-driven TRPM1 luciferase induction in melanoma cells – cell-based, SK-MEL-5, single point, primary screen (AID 588334);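 note: 0% = neutral control wells and 100% = parthenolide positive control wells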
# condition set: SK-MEL-5 TRPM1-promoter luciferase, 24 h; at 12.5 µM; stronger effect = higher value; % of positive control, neutral wells = 0
In all, about 300,000 compounds went through this assay and about 2,300 (0.77%) were called active. This is one part of a sample in which actives are shown more often than they occur.

compound: CC(C)C[C@H]1CN([C@@H](CC(C)C)CN2CCC[C@@H]2CN2C(=O)C(=O)NC[C@@H]2Cc2ccccc2)C(=O)C(=O)N1CCc1ccccc1
assay endpoint: activation
result: 2.67% (inactive)

Task: Query (compound): Cc1ccc(NC(=S)NCc2ccccc2Cl)c(C)c1 ; field requested: activation
Output: -11.2% (inactive)

Task: Dear colleague, I am looking for the recorded activation of the following compound: Cc1ccc(C(=O)NC(=S)Nc2ccccc2C)cc1
Output: 51.8% (inactive)

Task: Return reported activation; argument: O=C(CSc1nnc(-c2ccco2)n1CC1CCCO1)c1ccccc1 (configuration not stated)
Output: 5.67% (inactive)

Task: So what's the measured activation for this one? O=C(CC1SCCNC1=O)Nc1ccc(Cl)cc1 (configuration not stated)
Output: 26.1% (inactive)

Task: Look at this compound and give its reported activation. CN(C)S(=O)(=O)c1ccc2oc(SCC(=O)Nc3ccccc3F)nc2c1
Output: 114% (active)

----------
# experimental details: MITF-driven TRPM1 luciferase induction in melanoma cells – cell-based, SK-MEL-5, single point, primary screen (AID 588334);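 note: 0% = neutral control wells and 100% = parthenolide positive control wells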
# condition set: SK-MEL-5 TRPM1-promoter luciferase, 24 h; at 12.5 µM; stronger effect = higher value; % of positive control, neutral wells = 0
Out of some 300,000 compounds screened, about 2,300 (0.77%) were called active. Many of the other results were omitted from the sample, so actives are more common in it than they were.
Reported activation values for the following compounds.
# unit: % | format: bare number

Worked cases, answers included:
compound: COc1ccc(Nc2nnc(C)c3ccccc23)cc1
assay endpoint: activation
unit abbreviation: %
numeric readout: 24.4

compound: CC(C)c1ccc(NC(=O)Cn2ncc3ccccc32)cc1
assay endpoint: activation
unit abbreviation: %
numeric readout: 93

compound: NC(=O)N1CCc2ccccc21
assay endpoint: activation
unit abbreviation: %
numeric readout: -5.85

compound: CSCCC1NC(=O)N(CC(=O)Nc2cccc(S(=O)(=O)N3CCCCCC3)c2)C1=O (stereo unspecified)
assay endpoint: activation
unit abbreviation: %
numeric readout: 11.8

compound: O=C(c1ccc(CSc2ccccc2)cc1)N1CCCCCC1
assay endpoint: activation
unit abbreviation: %
numeric readout: 61.5

We now examine a further compound.
Task: Which activation value belongs to CCN(CC)C(=O)[C@H]1C[C@H](CC(=O)NCC23CC4CC(CC(C4)C2)C3)C(=O)N2CCc3c([nH]c4cc(CCC(=O)N(C)C)ccc34)[C@]12C ?
Output: -10.9

FYI, the data here is from PubChem BioAssay AID588334.
